Reference source: ChEMBL document CHEMBL4888484

- System: Plasmodium falciparum
- assay remarks: Primary screen in NF54 nanoGlo assay, in single point, at 2uM, 72h
- Format: functional, Erythrocyte
- condition set: timepoint 72 hour
About 540 (0.36%) of roughly 150,000 compounds showed an effect of 50% or more. Only a selection was taken, and strong results are over-represented in it overall.

>  <chemical structure>
c1nc(NCCC2CCCCC2)c2cnoc2n1

>  <tested system>
Plasmodium falciparum

>  <Z score>
-0.88

$$$$
>  <chemical structure>
Cc1cc(C(=O)Nc2cccc(C(F)(F)F)c2)cc2c1N(C)S(=O)(=O)c1ccccc1-2

>  <tested system>
Plasmodium falciparum

>  <Z score>
0.47

$$$$
>  <chemical structure>
Cc1cc(CC(=O)N[C@@H](C)c2nc(-c3cccnc3)cs2)no1

>  <tested system>
Plasmodium falciparum

>  <Z score>
0.5

$$$$
>  <chemical structure>
CC1=C(C(=O)Nc2ccccc2)[C@H](c2ccc(Cl)cc2)c2c(n(C)c(=O)n(C)c2=O)N1

>  <tested system>
Plasmodium falciparum

>  <Z score>
0.36

$$$$
>  <chemical structure>
Cc1ccc(C)c(C(=O)N[C@@H](C)c2nc(-c3cccnc3)cs2)c1

>  <tested system>
Plasmodium falciparum

>  <Z score>
-0.01

$$$$
>  <chemical structure>
CNC(=O)[C@@H]1C[C@H](NCc2ccccc2F)CN1CC(c1ccccc1)c1ccccc1

>  <tested system>
Plasmodium falciparum

>  <Z score>
-1.28

$$$$
>  <chemical structure>
Cc1ccccc1-c1oc(C)c(C)[n+]1[O-]

>  <tested system>
Plasmodium falciparum

>  <Z score>
-0.28

$$$$
>  <chemical structure>
Cc1cc(C(=O)NCCOc2ccccc2)c(C)s1

>  <tested system>
Plasmodium falciparum

>  <Z score>
2.3

$$$$
>  <chemical structure>
O=C(NCCOc1ccccc1)c1ccc(C(=O)NCCOc2ccccc2)s1

>  <tested system>
Plasmodium falciparum

>  <Z score>
-0.3

$$$$
>  <chemical structure>
Cc1cc(C(=O)N[C@@H](C)c2nc(-c3cccnc3)cs2)cc(O)n1

>  <tested system>
Plasmodium falciparum

>  <Z score>
-3.53

$$$$
>  <chemical structure>
O=C(NCCOc1ccccc1)NCCOc1ccccc1

>  <tested system>
Plasmodium falciparum

>  <Z score>
-0.22

$$$$

----------
- System: Plasmodium falciparum
- assay remarks: Primary screen in NF54 nanoGlo assay, in single point, at 2uM, 72h; a lower Z score goes with more inhibition
- Format: functional, Erythrocyte
- condition set: timepoint 72 hour
Screen size: about 150,000 compounds; about 540 (0.36%) showed an effect of 50% or more. The list comes from a sample in which strong results are over-represented; it also holds close analogues and randomly drawn compounds.
Z score values by entry
measured endpoint: Z score

>  <compound>
COc1ccc(C(=O)N[C@H]2CCN(c3cc(-c4ccc(Cl)cc4)n[nH]3)C2)c(C)c1

>  <measured endpoint>
Z score

>  <measurement>
2

$$$$
>  <compound>
Cc1cc(C(=O)N[C@H]2CCOC[C@@H]2OCc2ccccc2)c(C)n1C

>  <measured endpoint>
Z score

>  <measurement>
-1.34

$$$$
>  <compound>
COc1ccc(-c2cc(C(=O)N[C@H]3CCN(c4ccc(=O)n(C)n4)C3)c(C)n2C)cc1

>  <measured endpoint>
Z score

>  <measurement>
-11.23

$$$$
>  <compound>
O=C(CCc1c(F)cccc1Cl)N1CC(Nc2cnccn2)C1

>  <measured endpoint>
Z score

>  <measurement>
0.7

$$$$
>  <compound>
Cc1ccc(-c2cc(C(=O)NC3CC3)nn2C)cc1

>  <measured endpoint>
Z score

>  <measurement>
1.31

$$$$
>  <compound>
Cc1c(C(=O)NC2CCN(c3ccc(=O)n(C)n3)CC2)cc(-c2ccc(F)cc2)n1C

>  <measured endpoint>
Z score

>  <measurement>
0.6

$$$$
>  <compound>
Cc1cc(C)cc(-n2c(=O)c3sccc3n(CC(=O)Nc3ccc(N(C)C)cc3)c2=O)c1

>  <measured endpoint>
Z score

>  <measurement>
1.43

$$$$
>  <compound>
Cc1noc2ncnc(NC[C@](C)(O)c3cccc(F)c3)c12

>  <measured endpoint>
Z score

>  <measurement>
1.41

$$$$
>  <compound>
Cc1ccc2nc(-c3cnoc3C)cn2c1

>  <measured endpoint>
Z score

>  <measurement>
0.04

$$$$
>  <compound>
COc1ccc(-c2cc(C(=O)N[C@H]3CCN(c4ccc(=O)[nH]n4)C3)c(C)n2C)cc1

>  <measured endpoint>
Z score

>  <measurement>
-5.36

$$$$
>  <compound>
Cc1ccc2nc(-c3cc4ccccc4o3)cn2c1

>  <measured endpoint>
Z score

>  <measurement>
-5.65

$$$$
>  <compound>
Cc1c(C(=O)NC2CC2)cc(-c2ccccc2)n1C

>  <measured endpoint>
Z score

>  <measurement>
0.53

$$$$
>  <compound>
Cc1ccc(CNC[C@H](O)c2cccnc2)c(Br)c1

>  <measured endpoint>
Z score

>  <measurement>
-0.68

$$$$
>  <compound>
COc1ccc(-c2cc(N3CC[C@H](NC(=O)c4ccc(C)cc4)C3)[nH]n2)cc1

>  <measured endpoint>
Z score

>  <measurement>
1.05

$$$$
>  <compound>
Nc1nn2cc(-c3cc4ccccc4o3)nc2c2ccccc12

>  <measured endpoint>
Z score

>  <measurement>
1.22

$$$$
>  <compound>
NC1CCC(C(=O)NCC2(c3ccccc3Cl)CCOCC2)C1 (configuration not stated)

>  <measured endpoint>
Z score

>  <measurement>
-1.21

$$$$
>  <compound>
CC(C)n1ccnc1[C@H]1CCCN(C(=O)c2cnc3c(c2)CCCC3)C1

>  <measured endpoint>
Z score

>  <measurement>
-0.26

$$$$
>  <compound>
CC[C@H](C)[C@@H](CN(C)C)NC(=O)CCc1ccncc1

>  <measured endpoint>
Z score

>  <measurement>
-2.58

$$$$
>  <compound>
O=C(CCc1cn(-c2ccccc2)nc1-c1ccc2c(c1)OCO2)NC[C@H]1CCCO1

>  <measured endpoint>
Z score

>  <measurement>
0.04

$$$$
>  <compound>
COc1ccccc1C(=O)C(=O)NC1CC(C)(C)NC(C)(C)C1

>  <measured endpoint>
Z score

>  <measurement>
0.73

$$$$
>  <compound>
COc1cccc(Cn2c(=O)c3sccc3n(CC(=O)Nc3ccc(N(C)C)cc3)c2=O)c1

>  <measured endpoint>
Z score

>  <measurement>
-1.71

$$$$
>  <compound>
Cc1ccsc1-c1nccn1CCNC(=O)c1ccc(F)cc1

>  <measured endpoint>
Z score

>  <measurement>
0.58

$$$$
